target: purified HLA DRB1*0404 (Homo sapiens, UniProt P01903+P01911, A100R/A169T/F76Y/I96L/K127E/L162R/M171V/N62H/P40V/Q125Y/R42H/S133A/S149N/S66Y/V209L/W38E); construct: purified from EBV transformed homozygous cell lines or single MHC allele transfected 721.221, C1R, or fibroblast lines; made in house; assay: HLA-DR radioligand binding inhibition assay, DRB1*0404; details: IC50 nM purified HLA DRB1 *0404, purified HLA DRB1*0404
Ends that are not written are not given here.
MEASURED METRIC: IC50 (nM)

INSERT INTO results (sequence_content, measured_metric, obs_value) VALUES
  ('ILLVVVLGVVFGILI [Peptide 9019.0068]', 'IC50', 3530);

The measured values listed here are drawn from patent US20140377340A1.
